Molecular target: T1, orthogonal hCD122 receptor (hoRb), hCD122 with H133D and Y134F (human, UniProt P14784 27-550)
T1 sequence: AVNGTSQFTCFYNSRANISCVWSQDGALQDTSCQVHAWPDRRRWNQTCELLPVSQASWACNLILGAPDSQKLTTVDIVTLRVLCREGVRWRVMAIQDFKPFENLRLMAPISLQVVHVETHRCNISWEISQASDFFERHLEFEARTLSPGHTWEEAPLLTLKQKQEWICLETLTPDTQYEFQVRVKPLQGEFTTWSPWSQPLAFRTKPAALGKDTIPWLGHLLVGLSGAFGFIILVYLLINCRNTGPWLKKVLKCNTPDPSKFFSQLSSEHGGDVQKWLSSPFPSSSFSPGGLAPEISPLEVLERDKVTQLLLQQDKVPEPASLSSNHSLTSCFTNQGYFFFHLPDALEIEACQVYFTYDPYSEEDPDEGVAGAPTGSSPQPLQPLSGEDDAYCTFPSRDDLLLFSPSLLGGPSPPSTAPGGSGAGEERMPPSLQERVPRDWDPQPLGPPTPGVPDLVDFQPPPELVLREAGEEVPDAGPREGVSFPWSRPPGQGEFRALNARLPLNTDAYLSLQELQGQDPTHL
Assay: cell-based or functional assay
quantity measured: 3F8 Ortho Proliferation Signal 1:10 (cts/min)

L18W, SQVLKA (ligand) APTSSSTKKTQLQLSQLWVLLKAILNGINNYKNPKLTRMLTFKFYMPKKATELKHLQCLEEELKPLEEVLNLAQSKNFHLRPRDLISNINVIVLELKGSETTFMCEYADETATIVEFLNRWITFCQSIISTLT: 32800

A: TQVLKA (ligand) APTSSSTKKTQLQLTQLLVLLKAILNGINNYKNPKLTRMLTFKFYMPKKATELKHLQCLEEELKPLEEVLNLAQSKNFHLRPRDLISNINVIVLELKGSETTFMCEYADETATIVEFLNRWITFCQSIISTLT
B: N88Q, SQVLKA (ligand) APTSSSTKKTQLQLSQLLVLLKAILNGINNYKNPKLTRMLTFKFYMPKKATELKHLQCLEEELKPLEEVLNLAQSKNFHLRPRDLISQINVIVLELKGSETTFMCEYADETATIVEFLNRWITFCQSIISTLT
// which entry has the larger 3F8 Ortho Proliferation Signal 1:10 value, A or B ? Write the label of whichever entry you select.
A
(A: 35900 cts/min, B: 914 cts/min)

Source of measurements: patent US20210196796A1
